# System: HeLa Kyoto
# Protocol Details: thermal stability score vs G1/S (z-score of summed log2 fold changes over temperatures); higher = more thermally stable than in G1/S
# Experimental Parameters: cell cycle stage: early G1 (4.5 h after nocodazole release)
Property Measured: thermal stability score
Answers are plain numbers.

MGCTVSAEDKAAAERSKMIDKNLREDGEKAAREVKLLLLGAGESGKSTIVKQMKIIHEDGYSEEECRQYRAVVYSNTIQSIMAIVKAMGNLQIDFADPSRADDARQLFALSCTAEEQGVLPDDLSGVIRRLWADHGVQACFGRSREYQLNDSAAYYLNDLERIAQSDYIPTQQDVLRTRVKTTGIVETHFTFKDLHFKMFDVGGQRSERKKWIHCFEGVTAIIFCVALSAYDLVLAEDEEMNRMHESMKLFDSICNNKWFTDTSIILFLNKKDLFEEKITHSPLTICFPEYTGANKYDEAASYIQSKFEDLNKRKDTKEIYTHFTCATDTKNVQFVFDAVTDVIIKNNLKDCGLF [GNAI2]	0.395

The record that follows has no thermal stability score shown yet.
## Task Given MAAERQEALREFVAVTGAEEDRARFFLESAGWDLQIALASFYEDGGDEDIVTISQATPSSVSRGTAPSDNRVTSFRDLIHDQDEDEEEEEGQRFYAGGSERSGQQIVGPPRKKSPNELVDDLFKGAKEHGAVAVERVTKSPGETSKPRPFAGGGYRLGAAPEEESAYVAGEKRQHSSQDVHVVLKLWKSGFSLDNGELRSYQDPSNAQFLESIRRGEVPAELRRLAHGGQVNLDMEDHRDEDFVKPKGAFKAFTGEGQKLGSTAPQVLSTSSPAQQAENEAKASSSILIDESEPTTNIQIRLADGGRLVQKFNHSHRISDIRLFIVDARPAMAATSFILMTTFPNKELADESQTLKEANLLNAVIVQRLT [NSFL1C] , state its recorded thermal stability score.
## Result -1.97

* * *

# System: HeLa Kyoto
# Protocol Details: solubility change mitosis vs G1/S (difference of NP-40 vs SDS log2 ratios) (log2 ratio difference); higher = more soluble in mitosis
Property Measured: solubility change mitosis (log2)

MAQTPAFDKPKVELHVHLDGSIKPETILYYGRRRGIALPANTAEGLLNVIGMDKPLTLPDFLAKFDYYMPAIAGCREAIKRIAYEFVEMKAKEGVVYVEVRYSPHLLANSKVEPIPWNQAEGDLTPDEVVALVGQGLQEGERDFGVKARSILCCMRHQPNWSPKVVELCKKYQQQTVVAIDLAGDETIPGSSLLPGHVQAYQEAVKSGIHRTVHAGEVGSAEVVKEAVDILKTERLGHGYHTLEDQALYNRLRQENMHFEICPWSSYLTGAWKPDTEHAVIRLKNDQANYSLNTDDPLIFKSTLDTDYQMTKRDMGFTEEEFKRLNINAAKSSFLPEDEKRELLDLLYKAYGMPPSASAGQNL [ADA]	-0.0197

Please find the next sequence below.
## Task What does the data say about its solubility change mitosis (log2)? Entry: MEAPEGGGGGPAARGPEGQPAPEARVHFRVARFIMEAGVKLGMRSIPIATACTIYHKFFCETNLDAYDPYLIAMSSIYLAGKVEEQHLRTRDIINVSNRYFNPSGEPLELDSRFWELRDSIVQCELLMLRVLRFQVSFQHPHKYLLHYLVSLQNWLNRHSWQRTPVAVTAWALLRDSYHGALCLRFQAQHIAVAVLYLALQVYGVEVPAEVEAEKPWWQVFNDDLTKPIIDNIVSDLIQIYTMDTEIP [FAM58A]
## Result 0.235
